# Tested on: OVCAR-5 ovarian
# protocol_description: NCI tumour cell line growth inhibition, 48 h
Measured TGI, listed per entry.

Given item COC(=O)C(=O)C(C(=O)C(=O)Nc1ccccc1[N+](=O)[O-])c1nc2ccc([N+](=O)[O-])cc2[nH]c1=O (stereo not drawn) , the value recorded as its TGI is > 100 µM

Given item NC(N)=NC(N)=Nc1ccc(C(=O)O)cc1 , the value recorded as its TGI is > 100 µM

Given item Cc1ccc(N2C(=O)/C(=C/c3ccc(N(CCC#N)CCC#N)cc3)N=C2COc2ccc(Cl)cc2Cl)cc1 , the value recorded as its TGI is > 100 µM

Given item COc1ccc(/C=C2\CCCc3ccccc3C2=O)cc1 , the value recorded as its TGI is > 100 µM

Given item C/C(=C\Cc1ccc(F)cc1)CCCCCC/C(C)=C/Cc1ccc(F)cc1 , the value recorded as its TGI is 37.9 µM

Given item C=C(C(=O)OC)[C@@H]1CC2OC1C(=O)C(C)CCC/C(C)=C/CC[C@@]2(C)O (stereo partly drawn) , the value recorded as its TGI is > 100 µM
